Target: T1, mTet3-CXXC T80A (Mus musculus (mouse), UniProt Q8BG87 51-96, T80A)
T1 chain: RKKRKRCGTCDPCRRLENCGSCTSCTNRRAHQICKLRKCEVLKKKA
Assay: ITC
Below is a list of entries, each paired with its recorded Kd value.
Kindly write the number and append the unit.

binder="CcaCG DNA (dsDNA, 5-carboxyl-dC at position 6 of both strands) DNA 1: GAATCCGGATTC DNA 2: GAATCCGGATTC" measured="910 nM"

We now examine a further binder.
# input binder: CCG DNA (dsDNA) DNA 1: GAATCCGGATTC DNA 2: GAATCCGGATTC ; wanted: its Kd
1790 nM
